- Test system: DeltatarO mutant
- assayName: S. aureus survival, RN4220 and DeltatarO strains – OD600, teichoic acid synthesis inhibitors, primary screen (AID 463173)
- conditionParameters: S. aureus RN4220 wild type/DeltatarO growth, OD600, 18 h, active compounds read low, screened at 18.75 µg/mL (by protocol)
Out of some 52,000 compounds screened, about 4,300 (8.3%) were called active. The entries come from a sample that favours actives as a whole.
Below: a set of entries, each annotated with reported survival.

# compound, survival
records = [
    ("OCc1cnc(SCc2ccccc2F)n1Cc1ccc(F)cc1", "87% (inactive)"),
]

Quick one: give measured survival for COc1cccc(C2CC(=O)Nc3cc(OC)c(OC)c(OC)c32)c1OC(C)C (stereo not given)
93% (inactive)

Look up and state reported survival for CCOC(=O)c1cccc(NC(=O)N2CC(CC)Oc3ccccc32)c1 (stereo not given)
54% (inactive)

Given the compound CC(=O)c1cc(-c2ccc(F)cc2)n(CC(=O)NCc2ccc(C)cc2)c1C , write its reported survival.
99% (inactive)

Let me know recorded survival for CC1=C(c2ccc(C)c(C)c2)S(=O)(=O)N=C1N1CCC(C(=O)Nc2cccc(F)c2)CC1 , thanks.
79% (inactive)

---

- System: DeltatarO mutant
- assayName: S. aureus survival, RN4220 and DeltatarO strains – OD600, teichoic acid synthesis inhibitors, primary screen (AID 463173)
- conditionParameters: S. aureus RN4220 wild type/DeltatarO growth, OD600, 18 h, active compounds read low, screened at 18.75 µg/mL (by protocol)
Screen size: about 52,000 compounds; about 4,300 (8.3%) were called active. Many of the other results were omitted from the sample, so actives are more common in it than they were.
attributeMeasured: survival (%)
# output: bare number, implied unit %

# compound, survival [%]
rows = [
    ("COc1ccccc1C(=O)Nc1ccc(-c2nc3ccccc3s2)c(C)c1", 83),
    ("COc1ccc(CC(=O)Nc2ccc(-c3nc4ccccc4s3)c(C)c2)cc1", 69),
    ("Cc1ccc(NC(=O)CCCn2c(=O)c3cccn3c3ccccc32)cc1Cl", 68),
    ("CCCCC(=O)Nc1ccc2nc(SCC(=O)N3CCOCC3)sc2c1", 87),
    ("Cc1cccc(OCCSc2nc3ccc(NC(=O)COc4ccccc4)cc3s2)c1", 78),
    ("CC(C)Oc1ccc(CNC(=O)c2sc3ncccc3c2-n2cccc2)cc1", 46),
    ("COc1ccc(Br)cc1CNC(=O)C1CCCCN1S(=O)(=O)c1ccc(F)cc1 (configuration not stated)", 81),
    ("Cc1ccc(NC(=O)CCn2c(=O)c3cccn3c3ccccc32)cc1C", 46),
    ("CCCOc1ccccc1C(=O)Nc1ccc(-c2nc3ccc(C)cc3s2)cc1", 29),
    ("COC(=O)CC1Oc2ccc(C)cc2-n2cc(-c3ccc(F)cc3)nc21 (configuration not stated)", 56),
]

Output measured survival for this item: CCc1ccc(CNC(=O)c2sc3ncccc3c2-n2c(C)ccc2C)cc1
0

Report survival, nothing else, for this compound: CCc1ccc(NC(=O)CSc2nc(C)cc(COC)c2C#N)cc1
84

Please report the measured survival for Cc1cccc(OCC(=O)Nc2cccc(-c3nc4ccccc4s3)c2)c1
7

Specify reported survival for the compound shown: CCC(CC)C(=O)Nc1cccc(-c2nc3ccccc3s2)c1
53

Consider the compound COC(=O)CC1Oc2ccc(Cl)cc2-n2cc(-c3ccc(F)cc3)nc21 (configuration not stated) . State its measured survival.
90
